Origin of the recorded values: patent US4876346A

Entries and their inhibition in vivo at 50 mg/kg values follow.
# Tested on: ovalbumin induced bronchospasm
# Assay summary: In vivo inhibition of ovalbumin induced bronchospasm in sensitized guinea pigs mediated by endogenous mediators (Example 12)
# Parameters: species or system guinea pig (male Hartley)
# Study conditions: Cavia porcellus; 50 mg/kg intraduodenal, 10 minutes before ovalbumin challenge, guinea pig; read-out: % Inhibition of Max AUC
Structures can show the parent of a compound that is named as a salt.
Kindly answer with a numeric value in %, unit omitted.

// "CN(C)S(=O)(=O)N(C)C[C@H](O)c1cccc(OCc2ccc3ccccc3n2)c1" : inhibition in vivo at 50 mg/kg value = 2.5

// "CCN(CC)C(=O)N(C)C[C@H](O)c1cccc(OCc2ccc3ccccc3n2)c1" : inhibition in vivo at 50 mg/kg value = 75.8

// "CCC(=O)N(C)C[C@H](O)c1cccc(OCc2nc3ccccc3n2C)c1" : inhibition in vivo at 50 mg/kg value = 65.6

// COC(=O)[C@@H]1CCCN1C(=O)N(C)C[C@H](O)c1cccc(OCc2ccc3ccccc3n2)c1 [Example 2I, hydrochloride] : inhibition in vivo at 50 mg/kg value = 22.5

// "CCN(CC)C(=O)N(C)C[C@H](O)c1cccc(OCc2nc3ccccc3n2C)c1" : inhibition in vivo at 50 mg/kg value = 83.4

// CCNC(=O)O[C@@H](CN(C)C(=O)NCC)c1cccc(OCc2ccc3ccccc3n2)c1 [Example 5, hydrochloride] : inhibition in vivo at 50 mg/kg value = 80.2

----------
# System: 5-HETE synthesis by rat glycogen elicited polymorphonuclear leukocytes
# Assay summary: Inhibition of synthesis of 5-HETE by rat glycogen elicited polymorphonuclear leukocytes (Example 10)
# Assay type: cell-based, rat (female Wistar)
# Study conditions: Leukocyte; [14C]5-HETE synthesis, rat PMN, at 50 μm
# Experimental: The assay is carried out as follows: Peritoneal PMN are obtained from female Wistar rats (150-250 g) that received an i.p. injection of 6% glycogen (10 ml). […] After chromatography, the areas associated with 5-HETE standard are identified by autoradiography, cut out and quantitated by liquid scintillation. Results are expressed as % inhibition of [^14 C]5-HETE synthesis. […]
Counter-ions that a name gives are not always drawn.
Measurement label: inhibition at 50 µM

Lab entry: 5-HETE synthesis by rat glycogen elicited polymorphonuclear leukocytes assay, molecule "CCC(=O)N(C)C[C@H](O)c1cccc(OCc2nc3ccccc3n2C)c1" , inhibition at 50 µM = < 50%

Lab entry: 5-HETE synthesis by rat glycogen elicited polymorphonuclear leukocytes assay, molecule "CCN(CC)C(=O)N(C)C[C@H](O)c1cccc(OCc2nc3ccccc3n2C)c1" , inhibition at 50 µM = > 50%

Lab entry: 5-HETE synthesis by rat glycogen elicited polymorphonuclear leukocytes assay, molecule "CCN(CC)C(=O)N(C)C[C@H](O)c1cccc(OCc2nc3ccccc3s2)c1" , inhibition at 50 µM = > 50%

Lab entry: 5-HETE synthesis by rat glycogen elicited polymorphonuclear leukocytes assay, molecule "CN(C)C(=O)N(C)C[C@H](O)c1cccc(OCc2ccc3ccccc3n2)c1" , inhibition at 50 µM = > 50%

Lab entry: 5-HETE synthesis by rat glycogen elicited polymorphonuclear leukocytes assay, molecule "CCN(CC)C(=O)N(CC)C[C@H](O)c1cccc(OCc2ccc3ccccc3n2)c1" , inhibition at 50 µM = > 50%

Lab entry: 5-HETE synthesis by rat glycogen elicited polymorphonuclear leukocytes assay, molecule "CN(C[C@H](O)c1cccc(OCc2ccc3ccccc3n2)c1)C(=O)c1ccncc1" , inhibition at 50 µM = < 50%

Lab entry: 5-HETE synthesis by rat glycogen elicited polymorphonuclear leukocytes assay, molecule CN(C[C@H](O)c1cccc(OCc2ccc3ccccc3n2)c1)C(=O)N(c1ccccc1)c1ccccc1 [Example 2E, hydrochloride] , inhibition at 50 µM = > 50%
